- Tested on: MS2 coat protein
- protocol.description: apparent Kd, MS2 coat protein; higher = weaker binding; RNA-MaP array
- recorded.conditions: ligand present: theophylline; designed as: ON switch for theophylline
Lab note: compare apparent Kd against 30 nM. Equal or greater, write condition met. Smaller, write condition not met.

Example entries begin here.
>>> df
                           polymer_sequence  qualitative_label
0  AGGGAACAUGAGGAUCACCCAUGUGCCGAUACCAGUGAUUUUCAGCACCCUUGGCAGCGGAACCUUUGUUAUAUUAUUCUUAGGG  condition not met
1  GCGGUCCACUUGGAUACCAGCAGAUUAAUAAACAUGAGGAUCACCCAUGUAAGCGCCUUGUGCCCUUGGCAGCCAGGGUGGUCAG      condition met
2  GGUUAACAUGAGGAUCACCCAUGUCUUGAUACCAGUCGUUAUCUUGACCCUUGGCAGCAAGAUGACCGUUAGCAGCCGUCUUCUC  condition not met
3  GGCUGACAUGAGGAUCACCCAUGUAGUGAUACCAGUAAGAGAAUAUACCCUUGGCAGCACAGGUAACAACUCGUCUCCAAAGUAA      condition met
4  GGCACACAUGAGGAUCACCCAUGUGGCGAUACCAGUUGAUGGUAAAACCCUUGGCAGCGCCAGUCACAUGCAGAUAGUUACUGAA  condition not met

Prompt: For this sequence, is measured apparent Kd 30 nM or higher? UCCACACAUGAGGAUCACCCAUGUUGAGAUACCAGUAAACCAAAAUACCCUUGGCAGCUCCUACGCUCUUACAGCGGGAAUAUCC
Completion: condition not met

Prompt: Now consider AGGAGACAUGAGGAUCACCCAUGUCCAGAUACCAGAAUGUCUUUGUUCCCUUGGCAGCUGUGGAAAUCUGACCUGCCUCGGUCUG and answer again.
Completion: condition not met

---

- System: MS2 coat protein
- protocol.description: apparent Kd, MS2 coat protein; higher = weaker binding; RNA-MaP array; tryptophan 2.4 mM where present
- recorded.conditions: ligand present: tryptophan; designed as: ON switch for tryptophan
Lab note: compare apparent Kd against 20 nM. Equal or greater, write met. Smaller, write not met.

Example entries begin here.
In [3]: df
Out[3]:
                           polymer_sequence  qualitative_label
0  AAUGUCGGAUCGGCCGCCACUGGUUGGCCCUGUGUACAUGAGGAUCACCCAUGUCCAUCCCAAACCAGGACCGGGAUCUUUAUGU            not met
1  ACAUGAGGAUCACCCAUGUUUGAUGUUCCUCGAGGACCGGUACGGCCGCCACUCGAACGAGUGGCGCGCGAGCGCGCGCUCGCGC            not met
2  UCGUAUGCGGCGGCCGCCACUCGCGGAUAACGAGAGCUUAACAUGAGGAUCACCCAUGUGUCAUGGAGGACCGGGCCCAUUCACA                met
3  CUUGACAUGAGGAUCACCCAUGUUGGUAAACGAGGACCGGUACGGCCGCCACUCGGUUACGUGUAGUACCGGUAAGAUCCAGGGU                met
4  CUACAUUUGUAGAAACCGGUCAACAUUAUUCGAGGACCGGUACGGCCGCCACUCGUAUAUUUUUAUACAUGAGGAUCACCCAUGU            not met
5  GGAUUCAACUCGGCCGCCACUGGUGAUCCUAAUGUACAUGAGGAUCACCCAUGUACAUGAGAAUAUAGGACCGGGAGAUAAGUUA                met

Moving on to another sequence below.
Prompt: For this sequence, is measured apparent Kd 20 nM or higher? ACAUGAGGAUCACCCAUGUGCAUCACCCGACGAGGACCGGUACGGCCGCCACUCGGGUAUAUAUUUGCAUCGGGUGAUUUUACGU
Completion: not met
